// data source = ChEMBL document CHEMBL1135680

- studyTarget: Acylcarnitine hydrolase (Mus musculus, UniProt Q91WG0)
- Sequence (Q91WG0 whole entry): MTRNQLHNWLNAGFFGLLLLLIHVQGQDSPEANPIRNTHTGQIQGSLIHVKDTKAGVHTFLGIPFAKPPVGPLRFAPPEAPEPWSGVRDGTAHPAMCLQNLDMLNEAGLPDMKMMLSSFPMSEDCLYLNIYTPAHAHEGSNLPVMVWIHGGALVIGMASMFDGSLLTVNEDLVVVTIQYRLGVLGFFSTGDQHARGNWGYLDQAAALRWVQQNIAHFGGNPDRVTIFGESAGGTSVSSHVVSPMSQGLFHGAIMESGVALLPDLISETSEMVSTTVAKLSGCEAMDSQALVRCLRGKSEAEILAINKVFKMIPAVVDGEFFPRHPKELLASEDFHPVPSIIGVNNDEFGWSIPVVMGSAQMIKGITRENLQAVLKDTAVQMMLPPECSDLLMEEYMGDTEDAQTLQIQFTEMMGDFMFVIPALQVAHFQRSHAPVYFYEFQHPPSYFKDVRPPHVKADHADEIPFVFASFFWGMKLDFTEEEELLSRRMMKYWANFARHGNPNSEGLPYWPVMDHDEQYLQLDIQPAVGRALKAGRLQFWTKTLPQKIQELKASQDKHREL
Could you please classify the records by IC50 using these ranges: Low: < 0.2 µM; Mid: ≥ 0.2 µM and < 300 µM; High: ≥ 300 µM

In [3]: df
Out[3]:
                                   compound  labelclass
0                 CCCCCC[Se](=O)(=O)CC(C)=O         Mid
1                  CCCCCC[Se]CC(=O)C(F)(F)F         Mid
2                    CCCCCCS(=O)(=O)CC(C)=O        High
3          CCCCCC[Se](=O)(=O)CC(=O)C(F)(F)F         Low
4  CCCCCC[Se](=O)CC(=O)C(F)(F)F (stereo unspecified)         Low
5               CCCCCCCC(F)(F)C(=O)C(F)(F)F         Low
6                     CCCCCCSCC(=O)C(F)(F)F         Low
7                            CCCCCCSCC(C)=O        High
8                           CCCCCCCCC(=O)CF        High
9  CCCCCC[Se](=O)CC(C)=O (stereo unspecified)         Mid
